Listed compounds paired with reported pKi
biological target: human CB2 receptors (Homo sapiens (Human)); assay: human CB2 radioligand binding assay ([3H]CP 55,940 competition); settings: HEK293 membranes, 0.5 nM [3H]CP 55,940; read-out: human CB2 (Ki)
Just so you know, pKi here is -log10 of the concentration in molar units; reply with that number alone.

Give its pKi value. Item: "CC(=O)NOc1ccc(C(F)(F)F)cc1C(=O)/N=c1\sc(C(C)(C)C)cn1C[C@H]1CCCO1"
8.92

Consider next the compound "CC(C)(O)CCOc1ccc(C(F)(F)F)cc1C(=O)/N=c1\sc(C(C)(C)C)cn1C[C@H]1CCCO1" in the same way.
8.89

Consider next the compound "CC(C)(C)c1cn(C[C@H]2CCCO2)/c(=N/C(=O)c2cc(C(F)(F)F)ccc2OC[C@@H]2CNCCO2)s1" in the same way.
7.68

====

Listed compounds paired with reported pKi
target: rat CB2 receptors (Rattus norvegicus (Rat)); assay: rat CB2 radioligand binding assay ([3H]CP 55,940 competition); conditions: HEK293 membranes, 0.5 nM [3H]CP 55,940
Just so you know, pKi here is -log10 of the concentration in molar units; reply with that number alone.

The following compounds have reported results that may help.
Compound	Observed result
CN1CCCC[C@@H]1COc1ccc(C(F)(F)F)cc1C(=O)/N=c1\sc(C(C)(C)C)cn1C[C@H]1CCCO1	7.72
CC(COc1ccc(C(F)(F)F)cc1C(=O)/N=c1\sc(C(C)(C)C)cn1C[C@H]1CCCO1)=NOC1CCCCO1 (some centres unmarked)	8.18
CN1CCC[C@H]1COc1ccc(C(F)(F)F)cc1C(=S)/N=c1\sc(C(C)(C)C)cn1C[C@H]1CCCO1	9.05
CC(C)(C)c1cn(C[C@H]2CCCO2)/c(=N/C(=O)c2cc(C(F)(F)F)ccc2OC[C@H]2CCCCN2)s1	7.85

Give its pKi value. Item: "CC(C)(C)c1cn(C[C@@H]2CCCO2)/c(=N/C(=O)c2cc(C(F)(F)F)ccc2OC[C@H](N)CO)s1"
8.55

====

biological target: rat CB2 receptors (Rattus norvegicus (Rat))
Listed compounds paired with reported Ki
Give just the number in nM; leave the unit off.

Smiles text	Ki (nM)
CC(C)NOc1ccc(C(F)(F)F)cc1C(=O)/N=c1\sc(C(C)(C)C)cn1C[C@H]1CCCO1	0.5
CN1CCC[C@H]1COc1ccc(C#N)cc1C(=O)/N=c1\sc(C(C)(C)C)cn1C[C@H]1CCCO1	9.4
C[C@@H](O)COc1ccc(C(F)(F)F)cc1C(=O)/N=c1\sc(C(C)(C)C)cn1C[C@H]1CCCO1	0.5

Give its Ki value. Item: "CC(C)(C)c1cn(C[C@H]2CCCO2)/c(=N/C(=O)c2cc(C(F)(F)F)ccc2OC[C@H]2CCN2)s1"
15

Consider next the compound "CC(C)(C)NOc1ccc(C(F)(F)F)cc1C(=O)/N=c1\sc(C(C)(C)C)cn1C[C@H]1CCCO1" in the same way.
0.8

Consider next the compound "CCN(CC)Oc1ccc(C(F)(F)F)cc1C(=O)/N=c1\sc(C(C)(C)C)cn1C[C@H]1CCCO1" in the same way.
4.6

Consider next the compound "CC(C)(C)c1cn(C[C@H]2CCCO2)/c(=N/C(=O)c2cc(C(F)(F)F)ccc2OC[C@@H]2CCCN2)s1" in the same way.
2

Consider next the compound "CN(CCOc1ccc(C(F)(F)F)cc1C(=O)/N=c1\sc(C(C)(C)C)cn1C[C@H]1CCCO1)c1ccccc1" in the same way.
6.5

====

Listed compounds paired with reported pKi
target: human CB2 receptors (Homo sapiens (Human), UniProt P34972); assay: human CB2 radioligand binding assay ([3H]CP 55,940 competition); settings: HEK293 membranes, 0.5 nM [3H]CP 55,940; read-out: human CB2 (Ki)
Sequence (P34972 whole entry): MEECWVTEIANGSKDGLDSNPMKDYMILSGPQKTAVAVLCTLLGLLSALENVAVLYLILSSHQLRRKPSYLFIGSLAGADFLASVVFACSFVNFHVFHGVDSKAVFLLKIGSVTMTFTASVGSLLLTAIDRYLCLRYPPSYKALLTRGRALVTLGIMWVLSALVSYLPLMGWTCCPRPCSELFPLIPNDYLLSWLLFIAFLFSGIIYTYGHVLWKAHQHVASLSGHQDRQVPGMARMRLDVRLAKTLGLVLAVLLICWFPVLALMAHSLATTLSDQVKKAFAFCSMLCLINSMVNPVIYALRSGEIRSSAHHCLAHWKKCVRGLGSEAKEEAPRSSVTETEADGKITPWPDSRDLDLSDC
Just so you know, pKi here is -log10 of the concentration in molar units; reply with that number alone.

The following compounds have reported results that may help.
Compound	Study target	pKi
CC(C)(C)c1cn(C[C@H]2CCCO2)/c(=N/C(=O)c2cc(C(F)(F)F)ccc2OCc2cccc[n+]2[O-])s1	human CB2 receptors (Homo sapiens (Human), UniProt P34972)	6.68
CC(C)(C)c1cn(C[C@H]2CCCO2)/c(=N/C(=O)c2cc(C(F)(F)F)ccc2OC[C@@H]2CCN2)s1	human CB2 receptors (Homo sapiens (Human), UniProt P34972)	7.82
CN1CCCC[C@H]1COc1ccc(C(F)(F)F)cc1C(=O)/N=c1\sc(C(C)(C)C)cn1C[C@H]1CCCO1	human CB2 receptors (Homo sapiens (Human), UniProt P34972)	9.15

Give its pKi value. Item: "CC(COc1ccc(C(F)(F)F)cc1C(=O)/N=c1\sc(C(C)(C)C)cn1C[C@H]1CCCO1)=NOC(C)(C)C"
8.31

Consider next the compound "COCCn1cc(C(C)(C)C)s/c1=N\C(=O)c1cc(C(F)(F)F)ccc1OCc1cnccn1" in the same way.
7.35

Consider next the compound "CC(=NOc1ccc(C(F)(F)F)cc1C(=O)/N=c1\sc(C(C)(C)C)cn1C[C@H]1CCCO1)C(F)(F)F" in the same way.
8.36

Consider next the compound "CC(C)(C)NNc1ccc(C(F)(F)F)cc1C(=O)/N=c1\sc(C(C)(C)C)cn1C[C@H]1CCCO1" in the same way.
8.43

Consider next the compound "CN1C[C@H](F)C[C@H]1COc1ccc(C(F)(F)F)cc1C(=O)/N=c1\sc(C(C)(C)C)cn1C[C@H]1CCCO1" in the same way.
8.70

====

target: human CB2 receptors (Homo sapiens (Human), UniProt P34972); experiment: human CB2 radioligand binding assay ([3H]CP 55,940 competition); conditions: HEK293 membranes, 0.5 nM [3H]CP 55,940; read-out: human CB2 (Ki)
Listed compounds paired with reported pKi
Just so you know, pKi here is -log10 of the concentration in molar units; reply with that number alone.

Compound	pKi
CC(=O)C(C)=NOc1ccc(C(F)(F)F)cc1C(=O)/N=c1\sc(C(C)(C)C)cn1C[C@H]1CCCO1 [Example 84]	8.48

Give its pKi value. Item: CN1C[C@@H](F)C[C@H]1COc1ccc(C(F)(F)F)cc1C(=O)/N=c1\sc(C(C)(C)C)cn1C[C@H]1CCCO1 [Example 53]
8.52

Consider next the compound CN1CCC[C@@H]1COc1ccc(C(F)(F)F)cc1C(=O)/N=c1\sc(C(C)(C)C)cn1C[C@H]1CCCO1 [Example 26] in the same way.
6.69

Consider next the compound CC(C)NOc1ccc(C(F)(F)F)cc1C(=O)/N=c1\sc(C(C)(C)C)cn1C[C@H]1CCCO1 [Example 79] in the same way.
9.52

Consider next the compound CC(C)(C)c1cn(C[C@H]2CCCO2)/c(=N/C(=O)c2cc(C(F)(F)F)ccc2OCc2ccn[nH]2)s1 [Example 56] in the same way.
7.96

Consider next the compound CC(C)(C)c1cn(C[C@H]2CCCO2)/c(=N/C(=O)c2cc(C(F)(F)F)ccc2OCC(C)(C)n2cccc2)s1 [Example 74] in the same way.
7.47

Consider next the compound CC(C)(C)c1cn(C[C@H]2CCCO2)/c(=N/C(=O)c2cc(C(F)(F)F)ccc2OCCNCCO)s1 [Example 58] in the same way.
7.47

====

molecular target: human CB2 receptors (Homo sapiens (Human)); assay: human CB2 radioligand binding assay ([3H]CP 55,940 competition); conditions: HEK293 membranes, 0.5 nM [3H]CP 55,940; read-out: human CB2 (Ki)
Rule for this label: t means Ki is less than 100 nM; f means Ki is at least 100 nM.

Would you kindly verify if Ki of CN1CCC[C@H]1COc1ccc(C(F)(F)F)cc1C(=S)/N=c1\sc(C(C)(C)C)cn1C[C@H]1CCCO1 [Example 51] is strictly less than 100 nM?
t

Consider next the compound CC(C)(C)c1cn(C[C@H]2CCCO2)/c(=N/C(=O)c2cc(C(F)(F)F)ccc2OC[C@H]2CCN2)s1 [Example 1] in the same way.
f

Consider next the compound Cn1cncc1COc1ccc(C(F)(F)F)cc1C(=O)/N=c1\sc(C(C)(C)C)cn1C[C@H]1CCCO1 [Example 67] in the same way.
f

Consider next the compound CC(C)(C)c1cn(C[C@H]2CCCO2)/c(=N/C(=O)c2cc(C(F)(F)F)ccc2OCc2cccnc2)s1 [Example 21] in the same way.
t

Consider next the compound CC(C)(C)/C(COc1ccc(C(F)(F)F)cc1C(=O)/N=c1\sc(C(C)(C)C)cn1C[C@H]1CCCO1)=N\O [Example 71] in the same way.
t

Consider next the compound CN1CCN(C)C(COc2ccc(C(F)(F)F)cc2C(=O)/N=c2\sc(C(C)(C)C)cn2C[C@@H]2CCCO2)C1 (stereo partly drawn) [Example 34] in the same way.
t
